test: chemical genetic growth profiling, strain panel (AID 1159580);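 also: tested at 20 µM; growth read once vehicle control cultures reached saturation at 30 °C; 1 = growth at the plate median or of vehicle wells; lower values mean less growth of the strain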; settings: S. cerevisiae deletion strains, growth OD, locus YDR226W, strain ADK1, active compounds read low
Out of some 5,500 compounds screened, about 2,000 (36%) were called active. Another 18% or so got no clear call; they are omitted. The list shows a part of the results.
property.measured: normalized growth
No unit in the answer, only the number.

>  <smiles.code>
N=c1ccc2nc3c(Cl)c4c(c(Cl)c3oc-2c1S(=O)(=O)O)Nc1ccc(N)c(S(=O)(=O)O)c1O4

>  <reported.value>
0.993

$$$$

Ask | Value lookup for normalized growth; key = O=C1Nc2ccccc2/C1=N/N=C\c1cc(Br)cc(Br)c1O
Reply | 0.951

Ask | normalized growth lookup needed for CCCc1cnc(N2CCN(CC(=O)N(c3ccccc3)C3CCCCC3)CC2)nc1 , thanks.
Reply | 0.985

Ask | What measured normalized growth goes with COc1cc(NC(=S)Nc2ccccc2OC(F)(F)F)cc(C(F)(F)F)c1 ?
Reply | 0.977

Ask | Requested field: normalized growth. Item: O=C(NCc1cccs1)c1csc(Cc2c(Cl)cccc2Cl)n1
Reply | 0.971

Ask | Record request: normalized growth value, item N/C(CSc1ncccc1C(F)(F)F)=N/OC(=O)Nc1cccc(Cl)c1
Reply | 0.983

Ask | Reported normalized growth, compound CC(C)(C)c1csc(NC(=O)c2ccc(Cl)cc2Cl)n1 : ____
Reply | 0.97

Ask | Any idea what normalized growth was measured for O=C(NNC(=O)c1csc(-c2cccs2)n1)c1ccc(C(F)(F)F)cc1 ?
Reply | 0.967

Ask | Request the reported normalized growth associated with N/C(CSc1ccc(Cl)cc1)=N/OC(=O)c1ccc(C(F)(F)F)cc1
Reply | 0.867

Ask | GET /values?readout=normalized growth&item= CC(C)(C)c1cc2nc(C(F)(F)F)cc(NNC(=O)c3ccc(Cl)cc3)n2n1
Reply | 0.982

Ask | normalized growth lookup needed for Cc1ccc(C(O)(c2ccccc2)c2ccccc2)c2ccccc12 , thanks.
Reply | 0.983

Ask | I am curious: what normalized growth value has been reported for CC(C)(C)c1csc(NC(=O)Nc2ccc(Cl)cc2)n1 ?
Reply | 0.973

Ask | // returns reported normalized growth for input Clc1ccc(-c2csc(Nc3ccccc3)n2)s1
Reply | 0.936

Ask | What value of measured normalized growth is listed for CC(C)(C)c1csc(NNC(=O)c2ccc(Cl)cc2)n1 ?
Reply | 0.975

From: PubChem BioAssay AID1159580
